This collection of values is drawn from the RNAGym collection of RNA variant scans (doi:10.1093/nar/gkz1192).

B1: CPEB3 Ribozyme (parent)
chain: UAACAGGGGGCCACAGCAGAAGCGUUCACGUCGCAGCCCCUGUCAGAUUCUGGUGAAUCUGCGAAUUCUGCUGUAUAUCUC

variants of: B1; assay: self-cleavage, relative activity (ratio to wild type); higher = more cleavage; in vitro, sequencing
Assay metric: self-cleavage

// below: answered variants
[[record]]
mutant_label = "C50U U80C"
result = 1.07

[[record]]
mutant_label = "A21G U60G"
result = 0.29


Input: What value of self-cleavage has been reported for the following variant? U25C A64C
Output: 0.45

Input: Same again, this time with U60A U74A
Output: 0.75

Input: Same again, this time with A21G C50A
Output: 0.57
